target: ChEH (Homo sapiens, UniProt Q15125); construct: MCF7 tumor cells, which originate from the American Tissue Culture Collection (ATCC), were used; host or cells: MCF7; experiment: Inhibition of ChEH activity in MCF7 cells (TLC of [14C]CE conversion); assay type: cell-based; conditions: MCF7 cells, [14C]CE 0.6 μM, 48 hours
Sequence (Q15125 whole entry): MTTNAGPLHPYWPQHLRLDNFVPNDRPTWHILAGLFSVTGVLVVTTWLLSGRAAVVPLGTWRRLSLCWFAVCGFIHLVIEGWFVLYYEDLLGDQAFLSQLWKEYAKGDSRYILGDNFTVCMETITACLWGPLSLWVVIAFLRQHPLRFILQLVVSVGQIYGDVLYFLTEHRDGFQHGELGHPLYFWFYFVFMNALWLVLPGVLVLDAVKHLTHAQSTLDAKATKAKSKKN
property: pIC50
Numbers only, as −log10 of the molar value.

[in] Please give the measured pIC50 for this compound: CC(C)CCC[C@@H](C)[C@H]1CC[C@H]2[C@@H]3C[C@@H](NCCc4c[nH]cn4)[C@@]4(O)C[C@@H](O)CC[C@]4(C)[C@H]3CC[C@]12C
[out] 6.22
